Reference source for all entries: PubChem BioAssay AID686970

assay: qHTS for induction of synthetic lethality in tumor cells producing 2HG: qHTS for the HT-1080-NT fibrosarcoma cell line; conditions: HT-1080-NT fibrosarcoma viability, CellTiter-Glo ATP luminescence, 48 h; series mostly up to 46.1 µM;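 note: NT is the 2HG producing partner of a matched IDH1 knockdown line; nearly all actives have a fitted effect of over 55% in size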
Screen size: about 360,000 compounds; about 6,000 (1.7%) were called active. Inconclusive results (about 8%) are left out. Calls come from the whole dose curve; as a rule, active = well fitted cell-killing curve with a large enough effect; inconclusive = small, poorly fitted or top-dose-only effect, or effect the other way; inactive = flat fitted curve, though single readings scatter. The sample as a whole holds a higher share of actives than the screen did.
Hello, when you answer, please use one of the following outcomes: active, inactive

MOLECULE	GROUP LABEL
O=C(NC1CCCCCC1)c1cccnc1Sc1ccc(Cl)cc1	inactive
Clc1cccc(N=C2NN=C(c3ccc4c(c3)OCCO4)CS2)c1	active
CC(=O)NC(c1cccc(F)c1)c1nc(-c2cccc(F)c2)cs1 (stereo unspecified)	inactive
O=C1CCC(C(=O)OCC(=O)Nc2ccc(OC(F)F)cc2)=NN1	inactive
O=C(NC1CCCCC1)c1ccc(-c2ccc(Cl)cc2)o1	active

Could you check what this test reported for "CCOC(=O)N1C(=O)C[C@](Sc2ccc(C)cc2)(C(=O)OC)[C@H]1c1ccccc1" ?
inactive

Test call, this molecule: CC1(C(=O)Nc2ccc3c(c2)OCCO3)CSCC(=O)N1CCOc1ccccc1 (stereo unspecified)
inactive

Please share the test call associated with "CC1=C/C(=N\OS(=O)(=O)c2ccccc2)C=CC1=O" .
active
